melting point values by entry
Where a name gives a salt, the structure may show the parent alone.
measurementName: melting point

compound="O=C(N[C@H]1[C@@H]2CC3C[C@H]1C[C@](F)(C3)C2)N1CCCc2ccccc21 [Compound 226]" measurementname="melting point" valuereported="182 to 184 °C"
compound="CC(C)(C(=O)N[C@H]1[C@@H]2CC3C[C@H]1C[C@](F)(C3)C2)c1cccc(OCC(=O)O)c1 [Compound 227]" measurementname="melting point" valuereported="210 to 215 °C"
compound="COc1cccc(C(C)(C)C(=O)N[C@H]2[C@@H]3CC4C[C@H]2C[C@](F)(C4)C3)c1 [Compound 189]" measurementname="melting point" valuereported="105 to 107 °C"
compound="CC(C)(C(=O)N[C@H]1[C@@H]2CC3C[C@H]1C[C@](O)(C3)C2)c1cccc(OCCN2CCOCC2)c1 (as salt: HCl) [Compound 158]" measurementname="melting point" valuereported="155 to 160 °C"
compound="CN1CCN(CCOc2cccc(C(C)(C)C(=O)NC3C4CC5CC(C4)CC3C5)c2)CC1 (stereo not shown) [Compound 199]" measurementname="melting point" valuereported="165 to 170 °C"
compound="O=C(NC1C2CC3CC(C2)CC1C3)N1CCCc2ccccc21 (stereo not shown) [Compound 200]" measurementname="melting point" valuereported="163 to 165 °C"
compound="CC(C)(C(=O)N[C@H]1[C@@H]2CC3C[C@H]1C[C@](F)(C3)C2)c1cccc(OCCN2CCOCC2)c1 (as salt: HCl) [Compound 228]" measurementname="melting point" valuereported="208 to 210 °C"
